- TEST DESCRIPTION: Drug cytotoxicity in Vero host cells (CPE assay)
- EXPERIMENTAL PARAMETERS: monkey, vero cells
ASSAY ENDPOINT: MCC

For Nc1nc2c(ncn2C2CC(CO)C2)c(=O)[nH]1 (stereo not shown) [Example 5G, 9-(3'-(Hydroxymethyl)cyclobutyl)guanine] , what is its reported MCC?
> 320 µg/mL
